These entries and their values trace back to ChEMBL document CHEMBL2407043.

test: Oral bioavailability in dog at 1 mg/kg; format: ADME, organism-based, Canis lupus familiaris; conditions: in vivo
Value Kind: bioavailability (%)
Write it as a number; the unit % goes unstated.

Provide measured bioavailability value, entry: C[C@]1(CS(=O)(=O)N2CCC(Oc3ccc(OCc4ccccn4)cc3)CC2)NC(=O)NC1=O 51

Provide only the value of recorded bioavailability for C[C@]1(CS(=O)(=O)N2CCC(Oc3ccc(OC(F)(F)C(F)F)cc3)CC2)NC(=O)NC1=O 40

Please give measured bioavailability of the following entry: C[C@]1(CS(=O)(=O)N2CCN(c3ncc(OCc4ccc(C(F)(F)F)o4)cn3)CC2)NC(=O)NC1=O 51

###

experiment: Thermodynamic solubility of the compound in phosphate buffer at pH 7.4 at 25 degC after 24 hrs; conditions: read-out: Therm_solubility
Answer each item with its documented solubility thermodynamic at 24 h.
// note: answer is a bare numeric in µM

Specify measured solubility thermodynamic at 24 h for C[C@]1(CS(=O)(=O)N2CCC(Oc3ccc(OC(F)(F)F)cc3)CC2)NC(=O)NC1=O . 18

Could you please provide reported solubility thermodynamic at 24 h for C[C@]1(CS(=O)(=O)N2CCC(Oc3ccc(OCc4ccccn4)cc3)CC2)NC(=O)NC1=O ? Thanks! 20

Please report solubility thermodynamic at 24 h for the following molecule: C[C@]1(CS(=O)(=O)N2CCC(Oc3ccc(OCc4ccncc4)cc3)CC2)NC(=O)NC1=O 130

Please give measured solubility thermodynamic at 24 h of the following entry: C[C@]1(CS(=O)(=O)N2CCN(c3ncc(OCc4cncs4)cn3)CC2)NC(=O)NC1=O 49

Quick one: give measured solubility thermodynamic at 24 h for C[C@]1(CS(=O)(=O)N2CCC(Oc3ccc(OCC(F)(F)F)cc3)CC2)NC(=O)NC1=O 34

###

Value Kind: IC50

# return IC50 for C[C@]1(CS(=O)(=O)N2CCC(Oc3ccc(OC(F)(F)C(F)F)cc3)CC2)NC(=O)NC1=O , test system: Cytochrome P450 3A4 (Homo sapiens) > 10 µM

###

experiment: Thermodynamic solubility of the compound in phosphate buffer at pH 7.4 at 25 degC after 24 hrs; details: read-out: Therm_solubility
Values of solubility thermodynamic at 24 h greater than or equal to 10 µM map to Criterion met; values below map to Criterion not met.

State whether the measured solubility thermodynamic at 24 h reaches 10 µM, counting equality as reaching it, for C[C@]1(CS(=O)(=O)N2CCC(Oc3ccc(OCc4ccccc4)cc3)CC2)NC(=O)NC1=O Criterion not met

Does solubility thermodynamic at 24 h meet or surpass 10 µM for C[C@]1(CS(=O)(=O)N2CCC(Oc3ccc(OCc4cnsn4)cc3)CC2)NC(=O)NC1=O ? Criterion met

Please check the record C[C@]1(CS(=O)(=O)N2CCC(Oc3ccc(OCc4cccnc4)cc3)CC2)NC(=O)NC1=O and state if its solubility thermodynamic at 24 h is at or above 10 µM. Criterion not met

Could you tell me if the measured solubility thermodynamic at 24 h of C[C@]1(CS(=O)(=O)N2CCN(c3ncc(OCc4ccc(C(F)(F)F)o4)cn3)CC2)NC(=O)NC1=O reaches 10 µM or more? Criterion met

In plain terms: is recorded solubility thermodynamic at 24 h at least 10 µM for C[C@]1(CS(=O)(=O)N2CCC(Oc3ccc(OCc4ccc(S(C)(=O)=O)cc4)cc3)CC2)NC(=O)NC1=O ? Criterion not met

Does solubility thermodynamic at 24 h meet or surpass 10 µM for C[C@]1(CS(=O)(=O)N2CCN(c3ncc(OCc4cccc(C#N)c4)cn3)CC2)NC(=O)NC1=O ? Criterion met

Quick check: does C[C@]1(CS(=O)(=O)N2CCN(c3ncc(OCc4ccc(S(C)(=O)=O)cc4)cn3)CC2)NC(=O)NC1=O have solubility thermodynamic at 24 h greater than or equal to 10 µM? Criterion not met

Does the reported solubility thermodynamic at 24 h for C[C@]1(CS(=O)(=O)N2CCC(Oc3ccc(OCc4cscn4)cc3)CC2)NC(=O)NC1=O fall at or above the 10 µM mark? Criterion met
